All values here come from paper PMC6010127.

Reported Ki values for the following compounds.
Biological target: CAS2 (Sordaria macrospora)
Construct: recombinant, obtained in-house
Sequence (C1L336 54-284): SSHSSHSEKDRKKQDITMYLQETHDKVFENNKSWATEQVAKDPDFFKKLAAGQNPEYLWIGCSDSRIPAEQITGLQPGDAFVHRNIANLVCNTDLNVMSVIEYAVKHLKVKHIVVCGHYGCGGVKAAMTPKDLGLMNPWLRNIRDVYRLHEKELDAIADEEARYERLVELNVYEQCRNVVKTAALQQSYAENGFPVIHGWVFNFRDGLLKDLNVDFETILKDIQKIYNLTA
Assay: biochemical
Design: stopped-flow CO2 hydration assay, phenol red 557 nm, pH 8.3, 15 min preincubation; KI by Cheng-Prusoff
Conditions: read-out: KI^a (nM) / CAS2^c / β; inhibitor
Write the number in nM without appending the unit.

Give its Ki value. Item: Nc1ccc(S(N)(=O)=O)cc1Br [compound 9]
12000

More entries:
Give its Ki value. Item: Cn1nc(S(N)(=O)=O)sc1=N [compound 14]
280
